Source: ChEMBL document CHEMBL1201862

# Tested on: KM12
# Assay protocol: NCI tumour cell line growth inhibition, 48 h
Activity calls are given as the source filed them. Rule as the data show it: active = GI50 up to about 1.1 µM and inactive = higher.
Mark one answer only. Choices: active, inactive

// param item: COC(=O)c1n[nH]c(C)c1/N=N/N(C)CCC#N ; yields the recorded call inactive

// return assay outcome for CCN(CC)C(=O)C/C(C)=N/NC(=O)c1ccncc1 inactive

Identify the outcome logged in this assay for the compound shown: O=C1C(Cl)=C(N2CCOCC2)C(=O)c2c(O)ccc(O)c21 inactive

What call does the record list for COc1ccc(C(=O)c2c(C(C(=O)c3ccc(OC)cc3)C(=O)c3ccc(OC)cc3)n(C(=O)c3ccc(OC)cc3)c3ccccc23)cc1 ? inactive

Recorded test call requested for O=C1CSC2(CC(/C=C/c3ccccc3Br)=NN2c2cccc(S(=O)(=O)O)c2)N1c1nc2ccccc2s1 (centres undefined) inactive

// outcome(item) with item = CC1=C(O)C(=O)C2C(=O)C1C1Cc3ccccc3C21 (centres undefined) inactive

Recorded test call requested for CCCCCCCC(=O)OCC1OC(n2cc(F)c(=O)[nH]c2=O)C(N)C(OC(=O)CCCCCCC)C1O (centres undefined) inactive

For CCN(CCCl)c1cccc(NC(=O)c2ccc(C(=O)Nc3cccc(CN(C)C)c3)cc2)c1 , which call appears in the assay record? active

Lab log entry: C/C(=N\Nc1ncnc2ccccc12)c1ccccn1 — outcome as called in the assay? active

Field: outcome | Entry: C=CCc1cccc2cc(C(=O)Nc3ccccn3)c(=N)oc12 inactive

Which outcome did this test record for the compound OC(C1CCC=NN1C(O)(C(F)(F)F)C(F)(F)F)(C(F)(F)F)C(F)(F)F (centres undefined) ? inactive

Record request — test call for C/C=C/CP(=O)(c1ccccc1)c1ccccc1 inactive

Query: recorded result category for CCCNC(=O)c1cc2ccccc2cc1C(=O)OC in this test inactive

Please let me know the test result on file for COc1ccc(C2=CC(c3ccccc3)n3nnnc3N2)cc1 (centres undefined) . inactive

Write down the call the test reported for this compound. Item: Cc1ccc(N2C(=O)C(=O)N(/N=C3\C(=O)Nc4ccccc43)C2=S)cc1 inactive

Could you check what this test reported for CCN(CCC#N)C(=O)Nc1ccccc1 ? inactive

Recorded test call requested for Cc1cc(S(=O)(=O)Nc2nc3ccsc3c(=O)n2N)c(S)cc1Cl inactive

For CC(=O)OCc1cc2c(s1)C(=O)c1sccc1C2=O , what call appears in the results of this test? active

// outcome(item) with item = COC(=O)/C=C\[C@H]1[C@H](C)N1S(=O)(=O)c1ccc(C)cc1 (some centres undefined) inactive

Fill in: this test's call for Cc1ccc([N+](=O)[O-])cc1S(=O)(=O)Nc1ccc(C2=NN(C(=O)c3ccccc3)C(c3cccs3)C2)cc1 (centres undefined) is ___ inactive

Assay outcome for COc1ccc2[nH]c3c(C)c4cc[n+](C)cc4c(C)c3c2c1 : what was it? inactive

Recorded test outcome, item CC#CC#C/C=C1/O[C@]2(CCC(OC(=O)CC(C)C)CO2)[C@@H]2O[C@H]12 (some centres undefined) inactive

Test call, this compound: Cc1ccc(NC(=O)C2C(=O)N(c3ccc(C)c(C)c3)C(=O)C2N=N)cc1C (centres undefined) inactive

// param item: CCc1nnc(-n2c(C)nc3cc(Cl)ccc3c2=O)s1 ; yields the recorded call inactive

Kindly provide the recorded test outcome for the following compound: CC(=O)OCC1OC(Nc2nc(O)n(C)c(=O)c2-c2csc(N)n2)C(OC(C)=O)C(OC(C)=O)C1OC(C)=O (centres undefined) inactive

So what was the verdict on O=c1c2ccccc2sc2nc(O)nn12 in this test? inactive

Record request — test call for O=C1CSC(c2cccc(Oc3ccccc3)c2)N1c1ccc(Cl)cc1 (centres undefined) inactive

Test call for this compound, please: CCc1nc(N)nc(N)c1-c1ccc([N+](C)(C)C)cc1 inactive

Could you please tell me the result logged for O=C1OC2(c3ccccc31)c1cc(I)c(O)c(I)c1Oc1c2cc(I)c(O)c1I in this assay? inactive

Which outcome was entered for the compound Cn1cnc([N+](=O)[O-])c1Sc1nccc(O)n1 in this test? inactive

// return assay outcome for O=C(O)C(CCc1ccccn1)c1ccccc1 (centres undefined) inactive

Please share the test call associated with Cc1ccc(-n2cc(-c3ccc(Cl)cc3)c3c(N/N=C4\SCC(=O)N4C)ncnc32)cc1 . inactive

Write down the call the test reported for this compound. Item: CC1(c2ccc(Cl)s2)CC(c2ccc(Cl)s2)=C(C#N)C(=C(C#N)C#N)N1 (centres undefined) inactive

Given C/C(=C1/N=C(c2cc([N+](=O)[O-])ccc2Cl)N(C2=CC=C(Cl)CC2)C1=O)c1cc2ccccc2oc1=O , state the outcome it received in this test. inactive

Outcome? CN(C)CCN(c1ccccn1)c1ccccn1 inactive

What did this assay record as the result for N=C(N)NC(=N)Nc1ccccc1.Sc1nc2ccccc2s1 ? inactive

Entry Cc1oc2nc(N(C)C)nc(NN)c2c1C : call = ? inactive

Lab log entry: C=C(C)C(=O)O[C@@H]1C/C(C)=C\[C@H](OC(C)=O)C[C@](C)(O)/C=C2/OC(=O)C(COC(C)=O)=C21 — outcome as called in the assay? inactive

I would be grateful if you could indicate the recorded call for CC(=O)OC1COC(Nc2nc(N)n(C)c(=O)c2N=O)C(OC(C)=O)C1OC(C)=O (centres undefined) . inactive

I'd appreciate the recorded outcome for O=C1OC(c2ccccc2)=NC1c1ccccc1 (centres undefined) from this test. inactive

Hello, I am checking results. What call was entered for Cc1cc(NS(=O)(=O)c2ccc(NC(=O)c3cccn4c(=O)c5ccccc5nc34)cc2)no1 ? inactive

Look up the recorded call for O=C1CC(c2ccccc2)NCN1 (centres undefined) in this test. inactive

Please let me know the test result on file for CCOC(=O)C(Br)(C(N)=O)C1(O)OC(c2ccccc2)=C(Br)C1=O (centres undefined) . inactive

Each compound tested received a call. Report the one for CCN(CC)C(=S)SS(C)(=O)=O . inactive
